composite z-score for assorted molecules
# assay-explanation: binders of probe aHhip on microarray, primary screen, stem cell growth factor project, biochemical, small-molecule microarray, fluorescence 635/667 (AID 1087);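 further: score merges spot fluorescence at 667nm with spot signal to noise ratio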
# reported-conditions: higher = more signal
I'd appreciate a reply containing only the number, no unit.

CCCC[C@@H]1C[C@H]1[C@@H](NC(=O)Cc1ccccc1)c1ccc(Cl)cc1 = -0.193
C#CCN(C/C=C/c1ccccc1)[C@H](CO[Si](C)(C)C(C)(C)C)c1ccccc1 = -0.0994
COC(=O)[C@@]1(Cc2ccc(OC)cc2)[C@H]2c3cc(C(=O)N(C)C)n(Cc4ccsc4Br)c3C[C@H]2CN1C(=O)c1ccccc1 = 0.239
CC(C)N1CC=CC23O[C@@H]4C=CCCOC(=O)C4[C@H]2C(=O)N(CCCCCO)[C@@H]3C1=O (some centres not stated) = -0.353
Cc1ccc(S[C@]2(C(=O)NCCN3CCOCC3)CC(=O)N(C3CCCCC3)[C@@H]2c2ccc(CO)cc2I)cc1 = -0.279
CN(C)CCCCNC(=O)[C@H]1C[C@H]2C(=O)NCC(=O)N2[C@H]1c1cccc(OCCO)c1 = -0.485

Fill in: composite z-score of CO[C@H]1O[C@H](CO)[C@@H](OC(=O)Nc2ccc(C(F)(F)F)cc2)[C@H](OC(=O)Nc2ccccc2-c2ccccc2)[C@H]1OC(=O)Nc1ccccc1-c1ccccc1 is ___
-0.0645

// next record COCCOC(=O)N1C(=O)[C@@]2(c3cc(C#CCC(C(=O)OC)C(=O)OC)ccc31)[C@H](C(N)=O)[C@H]1C(=O)O[C@H](c3ccccc3)[C@H](c3ccccc3)N1[C@@H]2c1ccc(OCCO)cc1
-0.249

// next record C[C@H]1NC(=O)C([C@@H](C)OCc2ccccc2)NC(=O)[C@@]23C(=O)N[C@@H](Cc4ccccc4)C2[C@H](C)[C@@]2(C)O[C@H]2C3/C=C/C/C=C\CNC1=O (some centres not stated)
-0.0324

// next record COC(=O)C1=CC(CCCO)=CC(C2CC2)N(Cc2cccc(OC(F)(F)F)c2)C=C1C(=O)OC (configuration not stated)
-0.0645

// next record COCCOC(=O)N1C(=O)[C@@]2(c3cc(C#CCCO)ccc31)[C@H](C(=O)N1CCc3cc(OC)c(OC)cc3C1)[C@H]1C(=O)O[C@H](c3ccccc3)[C@H](c3ccccc3)N1[C@@H]2c1ccccc1OCCO
-0.111

// next record CC(C)CNC(=O)[C@@H]1c2ccccc2C(=O)N(Cc2ccccc2Cl)[C@H]1c1ccc(CO)cc1
-0.236

// next record [N-]=[N+]=NCc1ccccc1[C@H]1OC(c2ccc(OCCCO)cc2)=N[C@@]1(Cc1ccccc1)C(=O)N1CCOCC1
-0.166

// next record [N-]=[N+]=NCc1ccccc1[C@@H]1OC(c2ccc(OCCCO)cc2)=N[C@]1(Cc1ccccc1)C(=O)NCc1ccccc1
0.0373

// next record COC(=O)[C@@H]1N=C(c2ccc(OCCCO)cc2)O[C@@H]1c1ccccc1CN=[N+]=[N-]
0.291

====

# assay-explanation: COS7 lysate on small-molecule microarray, probe aHis, 635 nm (AID 1123);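 further: z-score combines 667nm fluorescence intensity with signal-to-noise per printed compound spot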
# reported-conditions: COS7 cell lysate, fluorescence, higher = more signal
composite z-score for assorted compounds
I'd appreciate a reply containing only the number, no unit.

Here is how some compounds turned out for composite z-score.
COC(=O)[C@@]1(Cc2ccc(OC)cc2)[C@@H]2[C@@H](CC(=O)[C@H]2CC(=O)C(=O)N2CCCC2)CN1C(=O)c1ccccc1 = 3.45
COc1ccc([Si](C)(C)[C@H]2[C@H](CCO)O[C@@]3(C(=O)N(Cc4ccccc4)c4ccc(N(C=O)c5ccccc5)cc43)[C@@H]2C)cc1 = 0.929
[N-]=[N+]=Nc1ccccc1[C@@H]1OC(c2ccc(OCCCO)cc2)=N[C@]1(Cc1ccccc1)C(N)=O = 1.07
CC(C)CNC(=O)[C@@H]1c2ccccc2C(=O)N(C2Cc3ccccc3C2)[C@H]1c1ccc(CO)cc1 = 0.284
COC(=O)[C@@]1(Cc2ccc(F)cc2)[C@H]2c3cc(C(=O)N4CCCC4)n(CCO)c3C[C@H]2CN1C(=O)c1ccccc1 = 3.45

Fill in: composite z-score of C=CCC(OC(C)=O)[C@@H]1[C@@H](N(Cc2ccc(-c3cccc(C(F)(F)F)c3)o2)C(=O)c2cccc3ccccc23)c2cc(OCCCO)ccc2N1C(=O)c1ccc2ccccc2c1 (stereo partly drawn) is ___
0.289

// next record [N-]=[N+]=NCc1ccccc1C[C@]1(C(=O)N2CCCCC2)N=C(c2ccc(OCCCO)cc2)O[C@H]1c1ccccc1
1.22

// next record O=C1O[C@H](c2ccccc2)[C@H](c2ccccc2)N2[C@H]1[C@@H](C(=O)NC[C@H](O)c1ccccc1)[C@]1(C(=O)Nc3ccc(C#CCCO)cc31)[C@H]2c1ccccc1OCCO
2.38

// next record COCCOC(=O)N1C(=O)[C@@]2(c3ccccc31)[C@H](c1ccc(OCCO)cc1)N1[C@H](c3ccccc3)[C@H](c3ccccc3)OC(=O)[C@H]1[C@@H]2C(=O)N1CCN(c2ncccn2)CC1
1.78

// next record COC(=O)[C@@]1(Cc2ccccc2)[C@@H]2[C@@H](CC(=O)[C@H]2CC(=O)C(=O)N(C)C)CN1C(=O)c1ccccc1
2.87
